Data provenance is PubChem BioAssay.

# METHOD SUMMARY: FRG1 promoter luciferase signal modulators, primary screen, FRG1 inhibition for FSHD, cell-based, C2C12 myotubes, firefly/Renilla luciferase, luminescence (AID 1084)
# MEASUREMENT PARAMETERS: higher = more signal, called active from +8 up or from −8 down
Quick reference: z-score of the listed items.
ENDPOINT: z-score

1. O=C1OCC=C[C@H]2OC34C=CCN(Cn5nnc6ccccc65)C(=O)[C@H]3N(CCCCCCO)C(=O)[C@@H]4[C@@H]12 (stereo partly drawn) : 0.215
2. Cc1ccc(F)cc1S(=O)(=O)N[C@@H]1CCN(Cc2ccc(Oc3ccccc3)cc2)C1 : -1.9
3. CC(C)c1ccc(NN2C(C(O)c3ccco3)C=CC3C(=O)N(c4ccccc4)C(=O)C32)cc1 (stereo not drawn) : -1.22
4. C=CCOC(=O)[C@@H]1[C@H]2C(=O)O[C@H](c3ccccc3)[C@H](c3ccccc3)N2[C@H](c2ccc(OCCOC(=O)[C@H]3C[C@H]4C(=O)N[C@@H](CC(C)C)C(=O)N4[C@H]3c3ccc(O)cc3)cc2)[C@@]12C(=O)Nc1ccc(I)cc12 : -0.477
5. C=C(CCCC)/C(=C/C[C@@H](OC(C)=O)c1ccc(CO)o1)c1cc(C(=O)OC)ccc1OC : -0.129
6. CC(C)CCC[C@@H](C)[C@H]1CC[C@@]2(C)C3=C(CC[C@]12C)[C@@]1(C)CC[C@H](OC(=O)c2ccc(Br)cc2)C(C)(C)C1CC3 (stereo partly drawn) : -0.879
7. C=CCN1C(=O)[C@]2(CC=C)N=C(c3ccc(OCCCO)cc3)O[C@@H]2c2ccccc21 : -1.86
8. [N-]=[N+]=Nc1ccccc1[C@@H]1OC(c2ccc(OCCCO)cc2)=N[C@]1(CCS(=O)(=O)c1ccccc1)C(=O)NCCN1CCOCC1 : 1.2

---

# METHOD SUMMARY: small-molecule microarray binders of probe aXIP, primary screen, biochemical, NeuroSMM set, 635/667 nm fluorescence (AID 1119);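 also: probe is the protein aXip251-270 applied at 1 µg/mL to compound-printed slides; binding of probe to printed compounds measured as 667 nm fluorescence plus signal to noise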
# MEASUREMENT PARAMETERS: higher = more signal, called active from +8 up or from −8 down
ENDPOINT: composite Z-score

1. C=C(CCCC)C(=O)CC[C@@H](OC(=O)c1ccccc1-c1ccccc1C(=O)O)c1cccc(OCCO)c1 : -0.263
2. COC(=O)[C@@]1(Cc2ccc(OC)cc2)[C@H]2c3cc(C(=O)N(C)C)n(Cc4nc5ccccc5[nH]4)c3C[C@H]2CN1C(=O)c1ccccc1 : -0.119
3. COCCOC(=O)N1C(=O)[C@@]2(c3cc(C#CCC(C(=O)OC)C(=O)OC)ccc31)[C@H](c1ccc(OCCO)cc1)N1[C@H](c3ccccc3)[C@H](c3ccccc3)OC(=O)[C@H]1[C@@H]2C(=O)N1CCN(c2ncccn2)CC1 : -0.341

---

Each entry below lists one item and its recorded z-score value.
# METHOD SUMMARY: Plasmodium falciparum growth inhibition, primary screen, strain 3D7, DAPI fluorescence, 100 nL (AID 1184);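 also: parasites grown inside human red blood cells in medium with human serum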
# MEASUREMENT PARAMETERS: P. falciparum 3D7 growth, 3 d, higher = more signal
ENDPOINT: z-score

1. C=CCOC(=O)[C@@H]1[C@H]2C(=O)O[C@H](c3ccccc3)[C@H](c3ccccc3)N2[C@H](c2ccc(OCCOC(=O)[C@H]3C[C@H]4C(=O)N[C@@H](CCCC[N+](C)(C)C)C(=O)N4[C@H]3c3ccc(O)cc3)cc2)[C@@]12C(=O)Nc1ccc(I)cc12 : -1.16
2. COCCOC(=O)N1C(=O)[C@@]2(c3cc(C#Cc4ccc(OC)cc4)ccc31)[C@H](C(=O)NC[C@H](O)c1ccccc1)[C@H]1C(=O)O[C@H](c3ccccc3)[C@H](c3ccccc3)N1[C@@H]2c1ccc(O)cc1 : -0.754
3. Cc1ccc(S[C@]2(C(=O)NCCN3CCOCC3)CC(=O)N(Cc3ccccc3C(F)(F)F)[C@@H]2c2ccc(CO)cc2I)cc1 : -0.701
4. COc1ccc([Si](C)(C)[C@H]2[C@H](CCn3cc([C@H](O)c4ccccc4)nn3)O[C@@]3(C(=O)N(Cc4ccc(N5CCC5=O)cc4)c4ccccc43)[C@@H]2C)cc1 : -1.87
5. CC(CO)N1C(=O)[C@@H]2C3C(=O)OCCC/C=C\[C@H]3OC23C=CCN(Cn2nnc4ccccc42)C(=O)[C@@H]13 (stereo partly specified) : 0.357
6. O=C(N1CCCCC1)[C@@]1(Cc2ccccc2)COC(c2ccc(OCCCO)cc2)=N1 : -1.77
